Record form. Attribute: activity change, negative = inhibition. Fill in for each entry.
Target: 15-hydroxyprostaglandin dehydrogenase [NAD(+)] (Homo sapiens)
Assay: qHTS Assay for Inhibitors of HPGD (15-Hydroxyprostaglandin Dehydrogenase); note: % is set by controls: 0 for no effect and ±100 for the full control effect
Settings: purified HPGD, NADH fluorescence kinetic, PGE2 substrate; active compounds read low
In all, about 150,000 compounds went through this assay and about 6,500 (4.3%) were called active. Not shown: some 12% with an inconclusive outcome. For the sample, actives were picked, then their nearest neighbours and some compounds at random.
Write it as a number; the unit % goes unstated.

Qu. Find activity change, negative = inhibition (15-hydroxyprostaglandin dehydrogenase [NAD(+)] (Homo sapiens)) for the entry C[C@H]1Cc2c(COc3ccccc3)nc3c(c2CO1)CN(C(=O)NCc1ccco1)CC3
Ans. -1.13

Qu. Find activity change, negative = inhibition (15-hydroxyprostaglandin dehydrogenase [NAD(+)] (Homo sapiens)) for the entry COC(=O)c1ccc(NC(=O)CSc2nnc(CNc3ccc(OC)cc3)n2C)cc1
Ans. -6.05

Qu. So what activity change, negative = inhibition did COc1cc2c(cc1OC)C(Nc1ccc(S(N)(=O)=O)cc1)=NC(C)(C)C2 get with 15-hydroxyprostaglandin dehydrogenase [NAD(+)] (Homo sapiens)?
Ans. -7.98

Qu. Given the entry CC(=O)Nc1ccc(S(=O)(=O)Nc2nc3n(n2)C(c2ccccc2)CC(=O)N3)cc1 (stereo not given) , what activity change, negative = inhibition was observed with 15-hydroxyprostaglandin dehydrogenase [NAD(+)] (Homo sapiens)?
Ans. -6.58

Qu. Request: activity change, negative = inhibition, test system 15-hydroxyprostaglandin dehydrogenase [NAD(+)] (Homo sapiens), entry c1ccc(-n2ncc3c(N4CCCC4)ncnc32)cc1
Ans. -12.9

Qu. What activity change, negative = inhibition appears in the records for this compound with 15-hydroxyprostaglandin dehydrogenase [NAD(+)] (Homo sapiens)? O=C1OC(OC(=O)c2ccccc2Br)C(N2CCOCC2)=C1Cl (stereo not given)
Ans. -15.3

Qu. Enter reported activity change, negative = inhibition observed with 15-hydroxyprostaglandin dehydrogenase [NAD(+)] (Homo sapiens) for Cc1sc2ncnc(Sc3nc4ccccc4s3)c2c1C
Ans. -10.4

Qu. GET /values?readout=activity change, negative = inhibition&system=15-hydroxyprostaglandin dehydrogenase [NAD(+)] (Homo sapiens)&item= O=C(NCCN1CCOCC1)c1cc(Sc2cccc(Cl)c2)nc2ccccc12
Ans. -1.7

Qu. Fill in the recorded activity change, negative = inhibition for this compound, with 15-hydroxyprostaglandin dehydrogenase [NAD(+)] (Homo sapiens) as test system: N=c1c2c3c(sc2ncn1N)CCCCC3
Ans. -10.1

Qu. I'm curious: which activity change, negative = inhibition was measured for O=C(O)c1ccc(N=NN2CCOCC2)cc1 tested on 15-hydroxyprostaglandin dehydrogenase [NAD(+)] (Homo sapiens)?
Ans. -13.6

Qu. Identify the measured activity change, negative = inhibition of COc1ccc(NC(=O)COC(=O)c2ccc(NS(=O)(=O)/C=C/c3ccccc3)cc2)cc1 for 15-hydroxyprostaglandin dehydrogenase [NAD(+)] (Homo sapiens).
Ans. -13.7

Qu. 15-hydroxyprostaglandin dehydrogenase [NAD(+)] (Homo sapiens) / activity change, negative = inhibition / O=C(COc1nc2ccccc2nc1N1CCOCC1)NCC(F)(F)F : value?
Ans. -9.54

Qu. Quick check: activity change, negative = inhibition on 15-hydroxyprostaglandin dehydrogenase [NAD(+)] (Homo sapiens), item CCOC(=O)/C=C/C(=O)OCC(=O)NC(c1ccccc1)c1ccccc1 ?
Ans. -29.7

Qu. Quick check: activity change, negative = inhibition on 15-hydroxyprostaglandin dehydrogenase [NAD(+)] (Homo sapiens), item C=CCOc1c(Br)cc(/C=N\n2nnnc2N)cc1OC ?
Ans. -12.6

Qu. GET /values?readout=activity change, negative = inhibition&system=15-hydroxyprostaglandin dehydrogenase [NAD(+)] (Homo sapiens)&item= CCCCS(=O)(=O)N1C2=NC(C(=O)OC)=C(C(=O)OC)[C@@H]3N(Cc4ccccc4)c4ccccc4[C@]23C[C@H]1C(=O)OC
Ans. -6.02

Qu. Identify the measured activity change, negative = inhibition of CCn1c(COc2ccc(OC)cc2)nnc1SCC(=O)Nc1cc(OC)ccc1OC for 15-hydroxyprostaglandin dehydrogenase [NAD(+)] (Homo sapiens).
Ans. 1.56

Qu. Query activity change, negative = inhibition on 15-hydroxyprostaglandin dehydrogenase [NAD(+)] (Homo sapiens) for COCCNC(=O)c1ccccc1NS(=O)(=O)c1ccc(C)c([N+](=O)[O-])c1
Ans. 1.9

Qu. activity change, negative = inhibition of COc1cccc([C@@H]2Oc3ccc(Br)cc3C(=O)[C@H]2OC(=O)NCc2ccc3c(c2)OCO3)c1 on 15-hydroxyprostaglandin dehydrogenase [NAD(+)] (Homo sapiens)?
Ans. -12.1

Qu. Form field - read-out: activity change, negative = inhibition; system: 15-hydroxyprostaglandin dehydrogenase [NAD(+)] (Homo sapiens); submitted item: CCCC(C)C(=O)OCC(=O)Nc1c(Br)cc(C)cc1Br (stereo not given)
Ans. -2.73

Qu. Form field - read-out: activity change, negative = inhibition; system: 15-hydroxyprostaglandin dehydrogenase [NAD(+)] (Homo sapiens); submitted item: Cc1ccc(C(=O)N2CCN(C(=O)N3CCOCC3)CC2)cc1
Ans. 3.86

Qu. Request body: readout activity change, negative = inhibition, system 15-hydroxyprostaglandin dehydrogenase [NAD(+)] (Homo sapiens), query CCC(CC)NC(=O)/C=C/c1cccc([N+](=O)[O-])c1 . Return the value.
Ans. -13.1

Qu. Find activity change, negative = inhibition (15-hydroxyprostaglandin dehydrogenase [NAD(+)] (Homo sapiens)) for the entry Cc1ccc(NC(=O)c2oc(=O)c3ccccc3c2-c2ccccc2)c(C)c1
Ans. -2.46

Qu. # query: activity change, negative = inhibition | item CCn1c(SCC(=O)c2ccc3ccccc3c2)nnc1-c1cccs1 | system: 15-hydroxyprostaglandin dehydrogenase [NAD(+)] (Homo sapiens)
Ans. -18.4

Qu. # query: activity change, negative = inhibition | item CCn1nc(C)c(/C=N/NC(=O)Cc2ccc(Cl)cc2)c1C | system: 15-hydroxyprostaglandin dehydrogenase [NAD(+)] (Homo sapiens)
Ans. -9.17

Qu. Give 15-hydroxyprostaglandin dehydrogenase [NAD(+)] (Homo sapiens) activity change, negative = inhibition for CC(NC(=O)COC(=O)C1CCN(S(=O)(=O)c2ccccc2C(F)(F)F)CC1)c1ccccc1 (stereo not given)
Ans. -6.33

Qu. Give activity change, negative = inhibition (15-hydroxyprostaglandin dehydrogenase [NAD(+)] (Homo sapiens)) of the following compound: COc1ccc(C(=O)O/N=C(\N)Cc2ccc(Cl)cc2Cl)cc1OC
Ans. -15.7

Qu. Record O=C(NC(CC(=O)N1CCN(c2ccccc2)CC1)c1ccccc1)c1ccccc1Cl (stereo not given) : what is its activity change, negative = inhibition with 15-hydroxyprostaglandin dehydrogenase [NAD(+)] (Homo sapiens)?
Ans. -5.04

Qu. Given the entry CCOc1cc(/C=N/O)cc(Br)c1OC , what activity change, negative = inhibition was observed with 15-hydroxyprostaglandin dehydrogenase [NAD(+)] (Homo sapiens)?
Ans. -21.3

Qu. Short answer please: activity change, negative = inhibition, 15-hydroxyprostaglandin dehydrogenase [NAD(+)] (Homo sapiens), entry CC(C)(C)C(=O)N1CCC[C@@]1(CO)C(=O)O
Ans. -2.24

Qu. activity change, negative = inhibition of CC(=O)N/C(=C/c1ccc(OC(F)F)cc1)C(=O)O on 15-hydroxyprostaglandin dehydrogenase [NAD(+)] (Homo sapiens)?
Ans. -3.55

Qu. Tell me reported activity change, negative = inhibition for CCOc1ccc(/C=N/NC(N)=S)cc1 , tested with 15-hydroxyprostaglandin dehydrogenase [NAD(+)] (Homo sapiens).
Ans. -6.57

Qu. API: value(readout=activity change, negative = inhibition, system=15-hydroxyprostaglandin dehydrogenase [NAD(+)] (Homo sapiens)) for record Cc1cccc(-n2c(N)cc(=O)nc2SC(C)C(=O)NC2CCCCC2)c1 (stereo not given)
Ans. -19.7

Qu. Lab request: please report activity change, negative = inhibition under test system 15-hydroxyprostaglandin dehydrogenase [NAD(+)] (Homo sapiens) for CS(=O)(=O)Nc1cccc(C2=NN(S(=O)(=O)c3ccccc3)C(c3cccs3)C2)c1 (stereo not given)
Ans. -7.08

Qu. Param readout= activity change, negative = inhibition; system= 15-hydroxyprostaglandin dehydrogenase [NAD(+)] (Homo sapiens); entry= c1nnc2c3c4c(sc3ncn12)CCC4 ; returns value.
Ans. -16.5

Qu. Request body: readout activity change, negative = inhibition, system 15-hydroxyprostaglandin dehydrogenase [NAD(+)] (Homo sapiens), query O=C(CSc1nnc2scc(-c3ccc(F)cc3)n12)NCc1ccco1 . Return the value.
Ans. -3.23

Qu. Lab request: please report activity change, negative = inhibition under test system 15-hydroxyprostaglandin dehydrogenase [NAD(+)] (Homo sapiens) for Cc1cc(C(=O)N/N=C/c2ccc(O)c([N+](=O)[O-])c2)c(C)n1-c1ccc(F)cc1
Ans. -20.1

Qu. Requested read-out activity change, negative = inhibition, target or system 15-hydroxyprostaglandin dehydrogenase [NAD(+)] (Homo sapiens), entry COc1ccc(OCC(=O)N2CCOCC2)cc1
Ans. 4.8

Qu. Query for 15-hydroxyprostaglandin dehydrogenase [NAD(+)] (Homo sapiens): what activity change, negative = inhibition does the record show for CC(=O)NC1=NN(C(C)=O)C(C)(c2ccc(C)cc2)S1 (stereo not given) ?
Ans. -5.01

Qu. Give activity change, negative = inhibition (15-hydroxyprostaglandin dehydrogenase [NAD(+)] (Homo sapiens)) of the following compound: CC(=O)CC(c1ccccc1)C1C(=O)Oc2ccccc2C1=O (stereo not given)
Ans. -12.2

Qu. Provide value of activity change, negative = inhibition for this record tested with 15-hydroxyprostaglandin dehydrogenase [NAD(+)] (Homo sapiens): O=C1NC(c2ccccc2)=NC1(Nc1ccccn1)C(F)(F)F (stereo not given)
Ans. -0.712

Qu. Request: activity change, negative = inhibition, test system 15-hydroxyprostaglandin dehydrogenase [NAD(+)] (Homo sapiens), entry CCN1CN(Cc2ccccc2)CNC1=S
Ans. -9.5

Qu. Which activity change, negative = inhibition is reported with 15-hydroxyprostaglandin dehydrogenase [NAD(+)] (Homo sapiens) for this entry: CCOc1cc(-c2noc(CCC(=O)N3CCOCC3)n2)ccc1OC ?
Ans. -8.81

Qu. Any idea what activity change, negative = inhibition came out for NS(=O)(=O)c1ccc(CNC(=O)c2ccc(Cl)cc2[N+](=O)[O-])cc1 on 15-hydroxyprostaglandin dehydrogenase [NAD(+)] (Homo sapiens)?
Ans. -16.4

Qu. Param readout = activity change, negative = inhibition; param system = 15-hydroxyprostaglandin dehydrogenase [NAD(+)] (Homo sapiens); param query = COc1ccnc(Oc2ccccc2)n1 ; response: value
Ans. -1.44

Qu. Notebook: pull reported activity change, negative = inhibition for 15-hydroxyprostaglandin dehydrogenase [NAD(+)] (Homo sapiens), entry O=C(COC(=O)[C@H](Cc1ccccc1)NC(=O)c1cccs1)Nc1cc(F)ccc1F
Ans. 2.87
